Assay target: T1, cynomolgus CX3CR1 (cynomolgus monkey (Macaca fascicularis), UniProt P49238 1-355 (human entry))
T1 construct: Overexpressed on CHO K1 cells; also called cyno CX3CR1; cyCX3CR1
T1 chain: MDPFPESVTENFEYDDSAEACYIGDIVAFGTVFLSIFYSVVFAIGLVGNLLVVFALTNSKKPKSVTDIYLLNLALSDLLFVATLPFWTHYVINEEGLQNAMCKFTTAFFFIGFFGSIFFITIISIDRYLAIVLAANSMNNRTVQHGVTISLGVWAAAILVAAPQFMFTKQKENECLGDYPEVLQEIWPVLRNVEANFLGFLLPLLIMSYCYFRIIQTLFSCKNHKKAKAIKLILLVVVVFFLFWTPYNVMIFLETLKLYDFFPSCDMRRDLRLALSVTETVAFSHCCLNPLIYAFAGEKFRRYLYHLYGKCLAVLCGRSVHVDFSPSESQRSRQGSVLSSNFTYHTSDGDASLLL
Procedure summary: flow cytometry on CHO K1 cyCX3CR1 cells, 30 uM HSA
Please go through the items and note down their pEC50.
Scale note: pEC50 = -log10(concentration in M).

Entry A041600011 (VHH, Trivalent ISVD construct (two anti-CX3CR1 ISVDs, one anti-albumin ISVD), C-terminal alanine included in the entry; also called 66B02_SO (E1D)-9GS-66B02_SO-9GS-ALB23002-A) DVQLVESGGGSVQPGGSLRLSCAASGSIFSSTAMAWYRQAPGKRRDLVAAINTVGVTKYADSVKGRFTISRDNAKNTVYLQMNSLRPEDTALYYCTSDPRRGWDTRYWGQGTLVTVSSGGGGSGGGSEVQLVESGGGSVQPGGSLRLSCAASGSIFSSTAMAWYRQAPGKRRDLVAAINTVGVTKYADSVKGRFTISRDNAKNTVYLQMNSLRPEDTALYYCTSDPRRGWDTRYWGQGTLVTVSSGGGGSGGGSEVQLVESGGGVVQPGGSLRLSCAASGFTFRSFGMSWVRQAPGKGPEWVSSISGSGSDTLYADSVKGRFTISRDNSKNTLYLQMNSLRPEDTALYYCTIGGSLSRSSQGTLVTVSSA — recorded pEC50 = 9.96

Entry A041600031 (VHH, Trivalent ISVD construct (two anti-CX3CR1 ISVDs, one anti-albumin ISVD), C-terminal alanine included in the entry; also called 66B02_SO (E1D)-9GS-ALB23002-9GS-54A12_SO-A) DVQLVESGGGSVQPGGSLRLSCAASGSIFSSTAMAWYRQAPGKRRDLVAAINTVGVTKYADSVKGRFTISRDNAKNTVYLQMNSLRPEDTALYYCTSDPRRGWDTRYWGQGTLVTVSSGGGGSGGGSEVQLVESGGGVVQPGGSLRLSCAASGFTFRSFGMSWVRQAPGKGPEWVSSISGSGSDTLYADSVKGRFTISRDNSKNTLYLQMNSLRPEDTALYYCTIGGSLSRSSQGTLVTVSSGGGGSGGGSEVQLVESGGGSVQPGGSLRLSCAASGSIFSSTAMAWYRQAPGKQRDLVAVISTVGITKYADSVKGRFTISRDNAKNTVYLQMNSLRPEDTALYYCTSDARRGWDTRYWGQGTLVTVSSA — recorded pEC50 = 9.49

Entry A041600041 (VHH, Trivalent ISVD construct (two anti-CX3CR1 ISVDs, one anti-albumin ISVD), C-terminal alanine included in the entry; also called 54A12_SO (E1D)-9GS-66B02_SO-9GS-ALB23002-A) DVQLVESGGGSVQPGGSLRLSCAASGSIFSSTAMAWYRQAPGKQRDLVAVISTVGITKYADSVKGRFTISRDNAKNTVYLQMNSLRPEDTALYYCTSDARRGWDTRYWGQGTLVTVSSGGGGSGGGSEVQLVESGGGSVQPGGSLRLSCAASGSIFSSTAMAWYRQAPGKRRDLVAAINTVGVTKYADSVKGRFTISRDNAKNTVYLQMNSLRPEDTALYYCTSDPRRGWDTRYWGQGTLVTVSSGGGGSGGGSEVQLVESGGGVVQPGGSLRLSCAASGFTFRSFGMSWVRQAPGKGPEWVSSISGSGSDTLYADSVKGRFTISRDNSKNTLYLQMNSLRPEDTALYYCTIGGSLSRSSQGTLVTVSSA — recorded pEC50 = 9.82

Entry A041600034 (VHH, Trivalent ISVD construct; also called 54A12_SO (E1D)-9GS-ALB23002-9GS-66B02_SO-A) DVQLVESGGGSVQPGGSLRLSCAASGSIFSSTAMAWYRQAPGKQRDLVAVISTVGITKYADSVKGRFTISRDNAKNTVYLQMNSLRPEDTALYYCTSDARRGWDTRYWGQGTLVTVSSGGGGSGGGSEVQLVESGGGVVQPGGSLRLSCAASGFTFRSFGMSWVRQAPGKGPEWVSSISGSGSDTLYADSVKGRFTISRDNSKNTLYLQMNSLRPEDTALYYCTIGGSLSRSSQGTLVTVSSGGGGSGGGSEVQLVESGGGSVQPGGSLRLSCAASGSIFSSTAMAWYRQAPGKRRDLVAAINTVGVTKYADSVKGRFTISRDNAKNTVYLQMNSLRPEDTALYYCTSDPRRGWDTRYWGQGTLVTVSSA — recorded pEC50 = 9.35
